Test system: LOX IMVI melanoma
Assay: NCI tumour cell line growth inhibition, 48 h
Mark 0 (no) for TGI values under 10 µM, and 1 (yes) for everything at or above.

- Clc1ccc(C(c2ccc(Cl)cc2)N2CCNCC2)cc1: 0 (no)
- O=c1cc(-c2ccccc2)[nH]c2c(Cl)cccc12: 1 (yes)
- O=C1C(Cl)=C(Nc2cccc(O)c2)C(=O)N1Cc1ccc(Cl)cc1: 0 (no)
- O=c1oc2c/c(=C\c3ccccc3)c(=O)c3cccc1c3-2: 1 (yes)
- NC(=O)C[C@H](NC(=O)C1(NC(=O)[C@H](Cc2ccc(CP(=O)(O)O)cc2)NC(=O)C(=O)O)CCCCC1)C(=O)NCCCc1cccc2ccccc12: 1 (yes)
- Cn1c(/C=C(\C#N)c2cccc(C(F)(F)F)c2)nc2c(N3CCOCC3)nc(Cl)nc21: 0 (no)
- O=S(=O)(O)c1cc(Nc2ccnc3ccccc23)c2c(S(=O)(=O)O)cc(S(=O)(=O)O)cc2c1: 1 (yes)
- COc1cc(-c2csc(NC(=O)Nc3cc(C(F)(F)F)cc(C(F)(F)F)c3)n2)cc(OC)c1OC: 1 (yes)
- CCOC(=O)C1C[C@H]2CO[C@H](c3ccccc3)N2C1=O (some centres undefined): 1 (yes)

====

Tested on: HCC-2998 colon
Test: NCI tumour cell line growth inhibition, 48 h; in the data active = GI50 below about 0.43 µM; inactive = the rest
Possible outcomes: True = active, False = inactive

* CCCCOC(=O)c1ccc(NC(=O)CCl)cc1 | False
* CN1CCN(C(=O)c2c(NC(=O)NS(=O)(=O)c3ccccc3)sc3c2CCCCC3)CC1 | False
* Cn1c(/C=C(\C#N)c2cccc(C(F)(F)F)c2)nc2c(N3CCOCC3)nc(Cl)nc21 | False
* CN[C@@H]1C[C@H]2O[C@@](C)([C@@H]1OC)n1c3ccccc3c3c4c(c5c6ccccc6n2c5c31)C(=O)N[C@H]4O | True
* COc1ccc2c(c1)CCc1[nH]nc(-c3cc(OC)c(OC)c(OC)c3)c1-2 | True
* COc1ccc([I+]c2ccccc2)cc1 | False
* CC1(C)N=C(N)N=C(N)N1c1ccc(CCc2ccc(Cl)cc2S(=O)(=O)F)c(Cl)c1 | False
* C[C@@H](NC(=O)[C@@H](CC(=O)N1CCC(N2CCCCC2)CC1)N1C(=O)[C@@H](N2C(=O)OC[C@@H]2c2ccccc2)[C@H]1/C=C/c1cccc(Cl)c1)c1ccccc1 | False
* CC(C)[NH-].CC(C)[NH-].O.O.[Cl][Pt+2][Cl] | False

====

Recorded log10 of TGI values for a group of molecules are listed next.
System: COLO 205 colon
Test: NCI tumour cell line growth inhibition, 48 h
Parameter: log10 of TGI (log10 of the value in µM)

• COc1ccc(-c2nn(-c3cccc(Cl)c3)cc2-c2c(C#N)c(=O)n3[nH]c(-c4ccc(C)cc4)nc3c2C#N)cc1 = 0.91
• COc1cc2c(cc1OC(=O)c1cc3ccccc3[nH]1)N=C[C@@H]1CCCN1C2=O = -0.39
• C=CC[N+](CCO)(CCO)CCCCCCCCCCCCCCCCCC = 1.04
• COc1ccc2nc3cc([N+](=O)[O-])ccc3c(NCCCN(CCO)CCO)c2c1 = 0.96
• CSc1n(Cc2ccc3ccccc3c2)c(C)c[n+]1Cc1ccc2ccccc2c1 = 0.13
• CCCCCC(O)(CCCCC)CCCCCCCCC1=C(O)c2ccccc2C(=O)C1=O = 1.63

====

System: 786-0 renal
Experiment: NCI tumour cell line growth inhibition, 48 h
Recorded GI50 values for a group of compounds are listed next.
Parameter: GI50

- CCN(CC)CCCC(C)Nc1c2ccc(Cl)cc2nc2cc(OC)c(OC)cc12 (centres undefined): 1.46 µM
- CC(C)(c1ccc(Oc2ccc(C#N)c(C#N)c2)cc1)c1ccc(Oc2ccc(C#N)c(C#N)c2)cc1: > 100 µM
- OC(C1CO1)C(O)C1CO1 (centres undefined): 18.7 µM
- N#Cc1ccc(C2C3=C(CCCC3=O)OC3=C2C(=O)c2ccccc2C3=O)cc1 (centres undefined): 1.87 µM
- Cc1cc([N+](=O)[O-])ccc1NS(=O)(=O)c1cc(Cl)ccc1Cl: 3.03 µM
- COc1cc2c(cc1OC)C(CC1(O)CCCCC1)N(S(=O)(=O)c1ccc(C)cc1)CC2 (centres undefined): > 10 µM
- C[C@@H](NC(=O)[C@@H](CC(=O)N1CCC(N2CCCCC2)CC1)N1C(=O)[C@@H](N2C(=O)OC[C@@H]2c2ccccc2)[C@H]1/C=C/c1cccc(Cl)c1)c1ccccc1: 1.88 µM
- COc1ccc(-c2cn(-c3cccc(C(=O)/C=C/c4ccc(O)c(OC)c4)c3)c(=O)[nH]2)cc1: 4.32 µM
- O=C(Nc1ccc2[nH]c(C(=O)N3CC(CCl)c4c3cc([N+](=O)[O-])c3ccccc43)cc2c1)c1cc2ccccc2o1 (centres undefined): > 1100 µM

====

System: ACHN renal
Test: NCI tumour cell line growth inhibition, 48 h
Recorded TGI values for a group of compounds are listed next.
Parameter: TGI (µM)

- CC(C)[NH-].CC(C)[NH-].O.O.[Cl][Pt+2][Cl]: 107
- CSc1nc(SC)c2c(C(N)=S)[nH]nc2n1: 74.7
- CC1(C)CCC[C@]2(C)c3cc(O)ccc3CC[C@@H]12: 33.5
- N#Cc1ccc(C2C3=C(CCCC3=O)OC3=C2C(=O)c2ccccc2C3=O)cc1 (stereo not given): 2.89
- O=C(O)C(C(=O)C(=O)C(C(=O)O)c1ccc(Cl)cc1)c1ccc(Cl)cc1 (stereo not given): 12.8

====

Recorded GI50 values for a group of compounds are listed next.
System: SF-539 CNS
Experiment: NCI tumour cell line growth inhibition, 48 h
Parameter: GI50

* COc1ccc([I+]c2ccccc2)cc1 | 6770 nM
* Cn1cc(-c2nc(-c3c[nH]c4ccncc34)cs2)c2cc(F)ccc21 | 1680 nM
* Nc1nc2ccc3[nH]ncc3c2c2c1CCCC2 | 1510 nM
* O=C(/C=C/c1cccc([N+](=O)[O-])c1)c1ccc(O)c(CN2CCN(c3cc4c(cc3F)c(=O)c(C(=O)O)cn4C3CC3)CC2)c1 | 1190 nM
* C[n+]1c2ccccc2c(Nc2ccc(NS(=O)(=O)CCCCN=C(N)N)cc2)c2ccc(N)cc21 | 3370 nM

====

System: HS 578T breast
Assay: NCI tumour cell line growth inhibition, 48 h
Parameter: GI50

- CN1CCN(C(=O)c2c(NC(=O)NS(=O)(=O)c3ccccc3)sc3c2CCCCC3)CC1: 40.3 µM
- Cn1cc(-c2nc(-c3c[nH]c4ccncc34)cs2)c2cc(F)ccc21: 2.21 µM
- CC1(C)N=C(N)N=C(N)N1c1ccc(CCc2ccc(Cl)cc2S(=O)(=O)F)c(Cl)c1: 11.1 µM

====

Recorded TGI values for a group of molecules are listed next.
System: BT-549 breast
Assay: NCI tumour cell line growth inhibition, 48 h
Parameter: TGI

* CCOC(=O)NC1=C(N2CC2)C(=O)C(NC(=O)OCC)=C(N2CC2)C1=O | 25 µM
* CN1C(=O)C(=Cc2cn(Cc3ccccc3)c3ccccc23)C(=O)N(C)C1=O | > 100 µM
* Nc1nc2ccc3[nH]ncc3c2c2c1CCCC2 | 3.34 µM
* CCOC(=O)c1nc2cc(C(F)(F)F)ccc2nc1Nc1ccc(F)cc1 | > 100 µM
* O=C1c2cc(-c3ccccc3)ccc2-c2c1c1ccc([N+](=O)[O-])cc1c(=O)n2CCCBr | > 50 µM
* COc1ccc2nc3cc([N+](=O)[O-])ccc3c(NCCCN(CCO)CCO)c2c1 | 12.8 µM
* O=C(O)CN(CC(=O)O)Cc1ccn(-c2cccc(-n3ccc(CN(CC(=O)O)CC(=O)O)n3)n2)n1 | > 100 µM
* CCN(CC)CCCC(C)Nc1c2ccc(Cl)cc2nc2cc(OC)c(OC)cc12 (configuration not stated) | 17.8 µM
* COc1cc(O)c2c(=O)c(OC)c(-c3ccc4c(c3)OCO4)oc2c1OC | > 50 µM
* O=C(Cn1c(=O)oc2ccc(C(=O)c3ccccc3Cl)cc21)c1ccc([N+](=O)[O-])cc1 | 75 µM
* CN1CCN(C(=O)c2c(NC(=O)NS(=O)(=O)c3ccccc3)sc3c2CCCCC3)CC1 | 98.6 µM
* N#C/C(=C\Nc1ccccn1)C(=O)c1ccco1 | > 100 µM
* COc1ccc(N2C(N)=C(C#N)C(C#N)(C#N)C2c2cccc([N+](=O)[O-])c2)cc1 (configuration not stated) | 32.3 µM
* Cc1cc([N+](=O)[O-])ccc1NS(=O)(=O)c1cc(Cl)ccc1Cl | 14 µM
* NC(=O)c1ncn2c(=O)n(CCl)nnc12 | > 100 µM
* NC(=S)N/N=C/c1ccc(O)cn1 | > 670 µM
* CC1C2CC(CC2N)C1(C)C (configuration not stated) | > 100 µM
* COc1ccc2c(c1)c1nc3cc(C)c(C)cc3nc1n2CCN(C)C | 3.49 µM
* O=C(Nc1ccc2[nH]c(C(=O)N3CC(CCl)c4c3cc([N+](=O)[O-])c3ccccc43)cc2c1)c1cc2ccccc2o1 (configuration not stated) | > 1100 µM
* Clc1ccc(C(c2ccc(Cl)cc2)N2CCNCC2)cc1 | 38.3 µM
* CCOc1cc2c(cc1O)CC[C@@H]1[C@@H]2CC[C@]2(C)C(OS(=O)OC3CC[C@@H]4[C@H]5CCc6cc(O)c(OCC)cc6[C@@H]5CC[C@@]34C)CC[C@@H]12 (some centres not stated) | 13.6 µM
* COC(=O)c1c(O)ccc2c1c1c(n2Cc2ccccc2OC)C(=O)c2ccccc2C1 | > 100 µM
* Cc1c(O)c(=O)ccn1CCc1c[nH]c2ccccc12 | > 100 µM
* N#CCOc1cccc(C2(N3CC=CCC3)CCCCC2)c1 | > 100 µM
* O=C(CCc1ccc(O)c(O)c1)NCCc1ccc(O)c(O)c1 | > 100 µM
* O=S(=O)(O)c1cc(Nc2ccnc3ccccc23)c2c(S(=O)(=O)O)cc(S(=O)(=O)O)cc2c1 | > 100 µM
* COc1c(-c2cccs2)oc2c(CC(=O)O)cccc2c1=O | > 100 µM
* CCCC(=O)Nc1cc(/C=C/C(=O)N2CC(CCl)c3c2cc([N+](=O)[O-])c2ccccc32)n(C)c1 (configuration not stated) | > 100 µM
* CC1CC(=O)Nc2ccc(N=NN(C)C)cc2N1C=O (configuration not stated) | > 100 µM
* O=c1oc(-c2ccccc2)cc2cccc(O)c12 | 59.1 µM
* COc1ccc2c(c1)CC1(O)COc3cc(OC)ccc3C1O2 (configuration not stated) | > 100 µM
* CCCCOC(=O)c1ccc(NC(=O)CCl)cc1 | 7.7 µM
* Cc1nc2c(Cl)cc(Cl)cc2c(Cl)c1CCCl | > 100 µM
* CC(=O)C1COC(O)C1C (configuration not stated) | > 100 µM
* Cn1c(N=[N+]=[N-])cc(=O)n(C)c1=O | > 100 µM
* C[n+]1c2ccccc2c(Nc2ccc(NS(=O)(=O)CCCCN=C(N)N)cc2)c2ccc(N)cc21 | > 100 µM
* COC(=O)C(Cc1ccccc1)NC(=O)c1ccc(CNC(=S)NCc2cccc(CNC(=S)NCc3ccccc3)c2)cc1 (configuration not stated) | > 62.5 µM
* COc1nc2ccc(CNc3ccc(C(=O)O)cc3)cc2nc1OC | > 10 µM
* Cn1cc(-c2nc(-c3c[nH]c4ccncc34)cs2)c2cc(F)ccc21 | 3.4 µM
* COP(=O)(OC)c1ccc(NCc2cc(O)ccc2O)cc1 | 36.9 µM
* Cc1cc(Oc2cnc(=O)[nH]c2)cs1 | > 100 µM
* Cc1cc2c(cc1-c1cc3c(cc1C)C(C(C)C)=C(O)C(=O)/C3=C\Nc1c(C)n(C)n(-c3ccccc3)c1=O)/C(=C/Nc1c(C)n(C)n(-c3ccccc3)c1=O)C(=O)C(O)=C2C(C)C | > 100 µM
